Please provide measured IC50 for the entries that follow.
Target: TEAD1 protein (YAP Binding Domain) (Homo sapiens, UniProt P28347)
Sequence (P28347 209-426 limits assumed): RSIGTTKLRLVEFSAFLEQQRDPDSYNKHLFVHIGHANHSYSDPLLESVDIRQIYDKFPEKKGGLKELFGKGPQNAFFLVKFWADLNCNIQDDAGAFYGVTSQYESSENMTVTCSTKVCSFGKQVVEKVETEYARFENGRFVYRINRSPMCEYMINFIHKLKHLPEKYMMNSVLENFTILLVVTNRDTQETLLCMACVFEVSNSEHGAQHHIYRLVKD

As a guide, the following entries are already answered.
| molecule | IC50 |
| --- | --- |
| C=CC(=O)Nc1ccc(Oc2cccc(C(C)(C)C)c2)c(F)c1 | 250 to 500 nM |
| O=C(NS(=O)(=O)C1CC1)c1ccc(OCC2CCC(F)(F)CC2)c(F)c1 | 500 to 2000 nM |
| O=C(O)c1ccc(F)c(OCC2CCC(F)(F)CC2)c1 | 250 to 500 nM |
| C=CC(=O)Nc1ccc(OCc2cc(C(=O)OC)ccc2Cl)c(F)c1 | 500 to 2000 nM |

Alright, here's another molecule for you.
Ask | Output IC50 of "C=CC(=O)Nc1ccc(OCc2cccc(C(F)(F)F)n2)c(F)c1"
Reply | 250 to 500 nM

* * *

What IC50 was measured for each of the following?
Biological target: TEAD1 protein (YAP Binding Domain) (Homo sapiens, UniProt P28347)

Some molecules with known IC50 results, for comparison:
| molecule | IC50 |
| --- | --- |
| C=CC(=O)Nc1ccc(Oc2cccc(C)c2)c(F)c1 [Compound 113] | ≤ 250 nM |
| C=CC(=O)Nc1ccc(OCc2cccnc2)c(F)c1 [Compound 56] | > 2000 nM |

For every item in the list below, what is its measured IC50?
1. C=CC(=O)Nc1ccc(OCC2CCC(F)(F)CC2)c(F)c1 [Compound 58]
2. C=CC(=O)Nc1ccc(Oc2ccc(C3CCCCC3)cc2)c(F)c1 [Compound 102]
3. C=CC(=O)Nc1ccc(OCc2cccc(F)c2)cc1Cc1ccncc1 [Compound 13]

Reply |
≤ 250 nM
≤ 250 nM
> 2000 nM

* * *

The molecules below have reported pIC50 for TEAD1 protein (YAP Binding Domain) (Homo sapiens).
pIC50: −log10 of the molar value.

Examples with their reported pIC50 follow.
| molecule | reported-measurement |
| --- | --- |
| C=CC(=O)Nc1ccc(C2COc3ccccc3O2)c(F)c1 (stereo not shown) | ≥ 6.60 |
| C=CC(=O)Nc1ccc(C2COc3ccccc3N2)c(F)c1 (stereo not shown) | 5.70 to 6.30 |
| C=CC(=O)Nc1ccc(OCc2ccc(C#N)s2)c(F)c1 | 5.70 to 6.30 |
| C=CC(=O)Nc1ccc(OCc2cccc(F)c2)c(C2CCCCC2)c1 | 5.70 to 6.30 |
| C=CC(=O)Nc1ccc(OCC2CCC(F)(F)CC2)c2ccnn12 | ≥ 6.60 |

Can you give me pIC50 for all of these, one by one?
1. C=CC(=O)Nc1ccc(OCc2cnc(C(F)(F)F)nc2)c(F)c1
2. C=CC(=O)Nc1ccc(OCc2cc(C(F)(F)F)ccn2)c(F)c1
3. C=CC(=O)Nc1ccc(OCc2cccc(F)c2)cc1OC

Reply |
< 5.70
6.30 to 6.60
≥ 6.60

* * *

pIC50: −log10 of the molar value.
Record type: pIC50 measurement. Applies to: TEAD1 protein (YAP Binding Domain) (Homo sapiens, UniProt P28347)

Reference set, count: 3
| compound | reported-measurement |
| --- | --- |
| C=CC(=O)Nc1ccc(OCCC(F)(F)F)c(F)c1 | < 5.70 |
| O=C(O)c1ccc(OCC2CCC(F)(F)CC2)c(F)c1 | 6.30 to 6.60 |
| C=CC(=O)Nc1ccc(OCc2cccc(F)c2F)c(F)c1 | 6.30 to 6.60 |

For each of the items listed, what is its pIC50?
1. C#Cc1cccc(COc2ccc(NC(=O)C=C)cc2F)c1
2. C=CC(=O)Nc1ccc(OCc2cccc(C(F)(F)F)c2)c(C#N)c1
3. C=CC(=O)Nc1ccc(OC(C)C2CCC(F)(F)CC2)c(F)c1 (stereo not shown)
4. C=CC(=O)Nc1ccc(Oc2ccc(C)cc2)c(F)c1
5. C=CC(=O)Nc1ccc(NCC2CCC(F)(F)CC2)c(F)c1
6. C=CC(=O)Nc1ccc(NC(=O)C2CCC(F)(F)CC2)c(F)c1
7. C=CC(=O)Nc1ccc(OCc2ccc(C)nc2)c(F)c1

Reply |
1. 6.30 to 6.60
2. 5.70 to 6.30
3. 6.30 to 6.60
4. ≥ 6.60
5. 6.30 to 6.60
6. ≥ 6.60
7. < 5.70
